- measured on: T1, Bdf1 bromodomain 1 (GST-tagged, WT) (Saccharomyces cerevisiae (strain ATCC …, UniProt P35817))
- T1 chain: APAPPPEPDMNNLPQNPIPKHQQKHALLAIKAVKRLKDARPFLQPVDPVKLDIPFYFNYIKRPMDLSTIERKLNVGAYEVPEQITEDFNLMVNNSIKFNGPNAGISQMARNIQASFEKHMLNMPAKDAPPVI
- protocol details: histone peptide array probed with recombinant GST-bromodomain, signal normalised to myc peptide control
Non-standard residues stand in square brackets, D forms with d. No end group written: not given here. Arg(Me2s) = CN=C(NC)NCCC[C@H](N)C(=O)O; Lys(Me2) = CN(C)CCCC[C@H](N)C(=O)O; pS = N[C@@H](COP(=O)(O)O)C(=O)O
property label: binding score

// worked examples, binding score included
[[record]]
binder = "PDPAKSAPAPKKGSK(Ac)KAVT"
property_label = "binding score"
test_result = 0.00825

[[record]]
binder = "ARTKQTARKSTGGKAPRKQ (A Rme2s T Kme2 Q T A Rme2a Kme2 S T G G K A P R K Q)"
property_label = "binding score"
test_result = 0

[[record]]
binder = "ARTKQTARKSTGGKAPRKQ (A Rme2a T Kac Q T A Rme2a K S T G G K A P R K Q)"
property_label = "binding score"
test_result = 0.00932

[[record]]
binder = "ARTKQTARKSTGGKAPRKQ (A R T Kme3 Q T A Rme2s Kme3 S T G G K A P R K Q)"
property_label = "binding score"
test_result = 0

[[record]]
binder = "A[Arg(Me2s)]T[Lys(Me2)]QTA[Arg(Me2s)][Lys(Me2)]STGGKAPRKQ"
property_label = "binding score"
test_result = 0


[I] ARTKQTARKSTGGKAPRKQ (A R T K Q T A Rme2a Kme2 pS T G G K A P R K Q)
[II] PDPAKSAPAPKKG[pS]K(Ac)KAVT
Req: # compare binding score for I vs II ; return the one with the smaller value Respond using the label that marks the chosen record.
Resp: I
